target: Phosphatidylinositol 4,5-bisphosphate 3-kinase catalytic subunit alpha isoform (Homo sapiens) (UniProt P42336); details: at 0.1 µM;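 also: values are mean inhibition figures from the GSK PKIS kinase panel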
Sequence (P42336 whole entry, canonical isoform): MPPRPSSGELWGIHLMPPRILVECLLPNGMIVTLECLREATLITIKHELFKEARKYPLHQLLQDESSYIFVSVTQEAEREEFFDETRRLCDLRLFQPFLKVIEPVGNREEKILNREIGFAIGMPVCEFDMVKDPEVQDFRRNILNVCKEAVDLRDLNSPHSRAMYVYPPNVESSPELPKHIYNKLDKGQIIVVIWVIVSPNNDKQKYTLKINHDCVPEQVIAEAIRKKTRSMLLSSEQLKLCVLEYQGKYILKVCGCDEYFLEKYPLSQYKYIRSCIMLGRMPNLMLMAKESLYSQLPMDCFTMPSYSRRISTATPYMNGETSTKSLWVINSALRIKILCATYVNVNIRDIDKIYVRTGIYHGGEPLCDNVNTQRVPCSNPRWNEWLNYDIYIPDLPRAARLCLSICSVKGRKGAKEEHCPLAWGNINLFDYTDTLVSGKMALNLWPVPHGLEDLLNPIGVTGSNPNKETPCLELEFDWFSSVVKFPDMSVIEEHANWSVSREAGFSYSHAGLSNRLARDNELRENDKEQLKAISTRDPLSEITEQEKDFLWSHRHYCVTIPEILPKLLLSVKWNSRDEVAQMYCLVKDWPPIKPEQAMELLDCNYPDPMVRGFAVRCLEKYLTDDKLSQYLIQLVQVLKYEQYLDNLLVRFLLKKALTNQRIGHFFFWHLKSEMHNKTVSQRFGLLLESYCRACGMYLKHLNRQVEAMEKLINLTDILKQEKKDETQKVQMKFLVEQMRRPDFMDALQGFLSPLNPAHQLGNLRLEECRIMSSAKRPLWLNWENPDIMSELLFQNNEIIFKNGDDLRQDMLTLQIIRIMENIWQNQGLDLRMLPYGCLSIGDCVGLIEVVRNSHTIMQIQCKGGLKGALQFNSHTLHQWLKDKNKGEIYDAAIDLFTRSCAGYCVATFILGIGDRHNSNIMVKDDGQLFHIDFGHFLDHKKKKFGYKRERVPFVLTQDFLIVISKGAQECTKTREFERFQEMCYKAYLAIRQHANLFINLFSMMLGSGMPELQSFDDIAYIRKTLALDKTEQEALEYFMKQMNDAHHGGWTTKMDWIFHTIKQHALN
reportedProperty: inhibition (%)
All answers are understood in %, so give the number only.

Exercise: Item Nc1nc(-c2cccc(Cl)c2)c(-c2ccc3ncccc3n2)s1 has what recorded inhibition?
Key: 4.68

Exercise: Any idea what inhibition was measured for COc1cc2ncn(-c3cc(OCc4ccccc4C(F)(F)F)c(C(=O)N(C)C)s3)c2cc1OC ?
Key: 0.78

Exercise: Fill blank: measured inhibition of the compound O=C(O[C@H]1CN[C@H](C#Cc2cc3ncnc(Nc4ccc(Cc5ccccc5)cc4)c3s2)C1)N1CCOCC1 is ____.
Key: 3.61

Exercise: What inhibition value was documented for this compound, Nc1ncc(-c2cccc(S(N)(=O)=O)c2)c2scc(-c3ccc(F)c(Cl)c3)c12 ?
Key: 4.44

Exercise: // query inhibition value for entry COC(=O)Nc1nc2ccc(Oc3ccc(NC(=O)Nc4cccc(Cl)c4)cc3)cc2[nH]1
Key: -0.11

Exercise: # inhibition lookup, item N#Cc1c(NC(=O)c2ccc(F)cc2)sc2c1CCCC2
Key: 1.06

Exercise: Could you share which inhibition value was measured for COc1ccc(CNC(=O)c2ccc(-c3cc(-c4nnc(C)o4)ccc3C)cc2)cc1 ?
Key: 0.29

Exercise: Request the reported inhibition associated with CCn1c(-c2nonc2N)nc2c(C#CC(C)(C)O)ncc(OC3CCNCC3)c21
Key: 2.27

Exercise: Entry CCNC(=O)O[C@H]1CN[C@H](C#Cc2cc3ncnc(Nc4ccc(OCc5cccc(F)c5)c(Cl)c4)c3s2)C1 : reported inhibition = ?
Key: 3.18

----------
system: Epidermal growth factor receptor (Homo sapiens), P00533 [L861Q]; settings: at 0.1 µM
Sequence (P00533 whole entry L861Q): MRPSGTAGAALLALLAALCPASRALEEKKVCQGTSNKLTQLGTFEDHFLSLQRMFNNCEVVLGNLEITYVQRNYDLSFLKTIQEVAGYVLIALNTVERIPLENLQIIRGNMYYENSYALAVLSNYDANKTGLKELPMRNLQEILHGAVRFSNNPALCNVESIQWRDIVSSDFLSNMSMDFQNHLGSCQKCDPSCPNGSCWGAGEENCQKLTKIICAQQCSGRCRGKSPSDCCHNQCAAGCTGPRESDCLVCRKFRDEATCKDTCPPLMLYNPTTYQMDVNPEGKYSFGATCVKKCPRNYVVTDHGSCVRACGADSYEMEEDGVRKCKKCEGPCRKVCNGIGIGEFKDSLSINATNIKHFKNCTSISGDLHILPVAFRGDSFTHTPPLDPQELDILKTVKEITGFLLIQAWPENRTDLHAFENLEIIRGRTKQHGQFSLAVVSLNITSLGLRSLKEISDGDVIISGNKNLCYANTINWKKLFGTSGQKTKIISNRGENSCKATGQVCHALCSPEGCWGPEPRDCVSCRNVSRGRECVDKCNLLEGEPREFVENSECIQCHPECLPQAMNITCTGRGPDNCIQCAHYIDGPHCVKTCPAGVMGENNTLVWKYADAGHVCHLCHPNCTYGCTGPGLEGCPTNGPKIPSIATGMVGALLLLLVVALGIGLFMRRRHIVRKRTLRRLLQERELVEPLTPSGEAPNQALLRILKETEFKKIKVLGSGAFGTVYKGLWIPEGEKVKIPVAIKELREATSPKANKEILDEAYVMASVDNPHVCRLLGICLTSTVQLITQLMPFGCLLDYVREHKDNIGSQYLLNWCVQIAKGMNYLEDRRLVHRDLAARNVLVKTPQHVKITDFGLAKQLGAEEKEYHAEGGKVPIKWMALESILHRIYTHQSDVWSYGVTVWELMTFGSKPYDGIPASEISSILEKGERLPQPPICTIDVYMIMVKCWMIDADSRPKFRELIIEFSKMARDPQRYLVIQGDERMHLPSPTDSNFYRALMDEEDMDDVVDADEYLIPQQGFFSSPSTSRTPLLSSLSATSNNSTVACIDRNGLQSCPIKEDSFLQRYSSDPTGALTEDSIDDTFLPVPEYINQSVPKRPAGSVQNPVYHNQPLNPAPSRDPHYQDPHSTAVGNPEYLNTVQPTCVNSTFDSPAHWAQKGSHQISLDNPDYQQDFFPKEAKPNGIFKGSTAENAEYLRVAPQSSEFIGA
reportedProperty: inhibition (%)
Numbers only; they are read as %.

Exercise: Record COc1ccc(-c2oc3ncnc(N)c3c2-c2ccc(NC(=O)Nc3cc(C(F)(F)F)ccc3F)cc2)cc1 : what is its inhibition with Epidermal growth factor receptor (Homo sapiens), P00533 [L861Q]?
Key: 4.81

Exercise: Form field: inhibition recorded for N#Cc1c(NC(=O)CN2CCOCC2)sc2c1CCCC2 with Epidermal growth factor receptor (Homo sapiens), P00533 [L861Q] (enter value)
Key: 3.34

Exercise: What reported inhibition corresponds to COc1cccc(-c2c[nH]c3c(N/N=C/c4ccncc4)ncnc23)c1 on Epidermal growth factor receptor (Homo sapiens), P00533 [L861Q]?
Key: 8.35

Exercise: Return inhibition measured with Epidermal growth factor receptor (Homo sapiens), P00533 [L861Q] given this molecule: Cc1ccc(O)cc1Nc1ccnc2cc(-c3ccccn3)ccc12
Key: 59.8

Exercise: Fill in the recorded inhibition for this molecule, with Epidermal growth factor receptor (Homo sapiens), P00533 [L861Q] as test system: COc1ccc2c(-c3ccnc(Nc4cccc(OC(F)(F)F)c4)n3)cnn2n1
Key: 2.8

Exercise: Fill in the recorded inhibition for this molecule, with Epidermal growth factor receptor (Homo sapiens), P00533 [L861Q] as test system: COc1ccc(-c2cc3c(N)ncnc3o2)cc1
Key: -0.61

Exercise: Epidermal growth factor receptor (Homo sapiens), P00533 [L861Q] / inhibition / Nc1nc(-c2cccc(Cl)c2)c(-c2ccc3ncccc3n2)s1 : value?
Key: 3.07

Exercise: Value wanted: inhibition (Epidermal growth factor receptor (Homo sapiens), P00533 [L861Q]) of entry COc1cc(N2CCN(C(C)C)CC2)ccc1Nc1nc(Nc2ccc(F)cc2C(N)=O)c2cc[nH]c2n1
Key: 3.8

Exercise: Lookup: inhibition / Epidermal growth factor receptor (Homo sapiens), P00533 [L861Q] / COc1cccc(-n2ncc3c(N/N=C/c4ccc(F)cc4)ncnc32)c1
Key: 5.16

Exercise: Hello, I am looking for reported inhibition with Epidermal growth factor receptor (Homo sapiens), P00533 [L861Q] for COc1cc(/C=N/Nc2ncnc3[nH]ncc23)ccc1O . Could you help?
Key: 2.91

Exercise: For the record CCn1c(-c2nonc2N)nc2ccccc21 , what value of inhibition is listed for Epidermal growth factor receptor (Homo sapiens), P00533 [L861Q]?
Key: 1.96

Exercise: Item COc1cc(Nc2nccc(Nc3ccc4c(C)n[nH]c4c3)n2)cc(OC)c1OC with Epidermal growth factor receptor (Homo sapiens), P00533 [L861Q] - inhibition?
Key: 2.9

Exercise: Reported inhibition for Epidermal growth factor receptor (Homo sapiens), P00533 [L861Q], given CCOc1ccc2c(-c3ccnc(Nc4cccc(C(F)(F)F)c4)n3)cnn2n1 ?
Key: 1.44

Exercise: What value of inhibition on Epidermal growth factor receptor (Homo sapiens), P00533 [L861Q] does Fc1ccc(-c2cc(-c3c[nH]nc3-c3ccccn3)ccn2)cc1 have?
Key: 4

Exercise: Lookup: inhibition / Epidermal growth factor receptor (Homo sapiens), P00533 [L861Q] / CCc1nn2ncccc2c1-c1ccnc(NC2CC2)n1
Key: 1.81

Exercise: Param readout = inhibition; param system = Epidermal growth factor receptor (Homo sapiens), P00533 [L861Q]; param query = O=S(=O)(CCNCc1ccc(-c2ccc3ncnc(Nc4ccc(OCc5cccc(F)c5)c(Cl)c4)c3c2)o1)c1ccccc1 ; response: value
Key: 39.2

Exercise: Hello, I am looking for reported inhibition with Epidermal growth factor receptor (Homo sapiens), P00533 [L861Q] for COc1ccc(-c2cc(-c3c[nH]nc3-c3ccccn3)ccn2)cc1 . Could you help?
Key: 4.61

Exercise: For Epidermal growth factor receptor (Homo sapiens), P00533 [L861Q], provide inhibition of NS(=O)(=O)c1ccc(N/N=C2\C(=O)Nc3ccc4ncccc4c32)cc1 please.
Key: 1.5

Exercise: Report inhibition for NS(=O)(=O)c1ccc(Nc2ncc(-c3ccccc3)o2)cc1 tested on Epidermal growth factor receptor (Homo sapiens), P00533 [L861Q].
Key: 2.61

Exercise: Which inhibition is reported with Epidermal growth factor receptor (Homo sapiens), P00533 [L861Q] for this entry: CNC(=O)c1cc(-c2ccc(F)cc2)cc(-c2ccc(S(=O)(=O)N3CCCC3)cc2)c1N ?
Key: 2.56

Exercise: So what inhibition did CNC(=O)c1cncc(/C=C/c2ccccc2Cl)c1 get with Epidermal growth factor receptor (Homo sapiens), P00533 [L861Q]?
Key: 1.06

Exercise: Please state recorded inhibition (tested on Epidermal growth factor receptor (Homo sapiens), P00533 [L861Q]) of Cc1ccc2c(-c3ccnc(Nc4ccccc4)n3)c(-c3ccc(F)cc3)nn2n1
Key: 51.8

----------
target: Receptor-type tyrosine-protein kinase FLT3 (Homo sapiens) (UniProt P36888); conditions: at 1 µM;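 also: values are mean percent inhibition of FLT3 kinase activity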
Sequence (P36888 whole entry): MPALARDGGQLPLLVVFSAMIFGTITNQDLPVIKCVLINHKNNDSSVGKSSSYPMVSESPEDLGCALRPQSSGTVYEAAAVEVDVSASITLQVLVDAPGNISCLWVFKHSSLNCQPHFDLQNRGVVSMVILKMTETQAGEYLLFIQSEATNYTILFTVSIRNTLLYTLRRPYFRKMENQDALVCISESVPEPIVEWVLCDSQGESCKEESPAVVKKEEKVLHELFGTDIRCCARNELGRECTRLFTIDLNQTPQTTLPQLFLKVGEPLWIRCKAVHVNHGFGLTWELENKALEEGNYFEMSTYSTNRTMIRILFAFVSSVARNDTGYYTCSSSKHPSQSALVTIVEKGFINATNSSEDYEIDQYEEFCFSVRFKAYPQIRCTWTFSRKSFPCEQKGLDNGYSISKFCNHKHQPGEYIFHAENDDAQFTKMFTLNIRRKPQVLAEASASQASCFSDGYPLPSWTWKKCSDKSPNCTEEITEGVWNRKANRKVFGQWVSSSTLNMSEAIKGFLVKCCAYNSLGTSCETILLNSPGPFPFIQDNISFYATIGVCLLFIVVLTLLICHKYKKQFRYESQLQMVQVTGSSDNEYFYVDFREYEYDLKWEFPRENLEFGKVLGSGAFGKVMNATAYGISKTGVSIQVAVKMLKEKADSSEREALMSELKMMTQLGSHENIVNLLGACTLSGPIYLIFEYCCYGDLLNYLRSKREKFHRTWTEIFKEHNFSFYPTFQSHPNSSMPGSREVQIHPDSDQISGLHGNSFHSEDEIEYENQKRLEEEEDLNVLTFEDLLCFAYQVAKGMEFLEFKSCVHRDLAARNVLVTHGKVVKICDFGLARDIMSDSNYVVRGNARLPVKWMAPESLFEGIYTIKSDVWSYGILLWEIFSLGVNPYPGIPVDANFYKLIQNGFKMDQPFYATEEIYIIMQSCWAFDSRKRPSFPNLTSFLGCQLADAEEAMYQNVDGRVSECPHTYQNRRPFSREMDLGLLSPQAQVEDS
Can you tell me inhibition for the items I'm about to list?
Hi! Could you send only the number? It should be in %, unit omitted.

Exercise: For the compound CC1=C(C(=O)Nc2cc(Cl)c3[nH]ncc3c2)C(c2ccc(C(F)(F)F)cc2)CC(=O)N1 (stereo not given) , what inhibition is on record?
Key: 3.1

Exercise: Which inhibition is reported for this compound? COc1cc(Nc2nccc(Nc3ccc4c(C)n[nH]c4c3)n2)cc(OC)c1OC
Key: 90.3

Exercise: Fill in: inhibition of COc1ccc2c(-c3ccnc(Nc4cccc(OC(F)(F)F)c4)n3)cnn2n1 is ___
Key: 14.3

Exercise: Consider the compound CCN(CC)S(=O)(=O)c1ccc(OC)c(Nc2ncc(-c3ccccc3)o2)c1 and give its measured inhibition.
Key: 53.4

Exercise: Would you kindly share the measured inhibition for CN1CCC(n2cnc(-c3ccc(F)cc3)c2-c2ccnc(N)n2)CC1 ?
Key: 1.76

----------
molecular target: ALK tyrosine kinase receptor (Homo sapiens); conditions: at 0.1 µM
Description: GSK_PKIS: ALK mean inhibition at 0.1 uM [Nanosyn]
reportedProperty: inhibition
Write the numeric value and append its unit.

Exercise: Recorded inhibition of NS(=O)(=O)c1ccc(N/N=C2\C(=O)Nc3ccc4ncccc4c32)cc1 , please.
Key: 3.06%

Exercise: What value of inhibition has been recorded for this entry: Fc1ccc(-c2nn3ncccc3c2-c2ccnc(Nc3ccc4c(c3)OCCO4)n2)cc1
Key: 4.64%

Exercise: Bench note: what inhibition did COc1cc(Nc2nccc(Nc3ccc4c(C)n[nH]c4c3)n2)cc(OC)c1OC show?
Key: 5.55%

Exercise: Can you look up the measured inhibition of CN(C)CCOc1ccc(-c2nc(-c3ccncc3)c(-c3ccc4c(c3)CC/C4=N\O)[nH]2)cc1 for me?
Key: 2.17%

Exercise: I'd like to know its inhibition. The compound in question is COc1cccc(-c2c[nH]c3c(N/N=C/c4ccncc4)ncnc23)c1
Key: 0.85%

----------
target: Testis-specific serine/threonine-protein kinase 2 (Homo sapiens); conditions: at 0.1 µM;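 also: values are mean inhibition of TSSK2 activity from the GSK PKIS profiling panel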
reportedProperty: inhibition (%)
The response must be a number in % with no trailing unit.

Exercise: Which inhibition value is on record for COc1cc2c(cc1Nc1nc(Nc3ccsc3C(N)=O)c3cc[nH]c3n1)N(C(=O)CN(C)C)CCC2(C)C ?
Key: 87.4

Exercise: Record request: inhibition value, item Cc1ccc2c(-c3ccnc(Nc4ccccc4)n3)c(-c3ccc(F)cc3)nn2n1
Key: 2.66

Exercise: Param item = CC1=C(C(=O)Nc2cc(Cl)c3[nH]ncc3c2)C(c2ccc(C(F)(F)F)cc2)CC(=O)N1 (stereo not given) ; retrieve measured inhibition.
Key: 2.37

Exercise: Please give the measured inhibition for this compound: CC(C)(CO)CNC(=O)c1ccc2c(c1)/C(=N/Nc1ccc(S(N)(=O)=O)cc1)C(=O)N2
Key: 0.45

Exercise: Quick one: inhibition for COc1cccc(-c2c[nH]c3c(N/N=C/c4ccncc4)ncnc23)c1 ?
Key: 0.73

Exercise: What measured inhibition goes with O=S(=O)(CCNCc1ccc(-c2ccc3ncnc(Nc4ccc(OCc5cccc(F)c5)c(Cl)c4)c3c2)o1)c1ccccc1 ?
Key: 2.59

Exercise: Fill blank: measured inhibition of the compound Nc1nc(-c2ccc(F)cc2)c(-c2ccc3ncccc3n2)s1 is ____.
Key: 2.36

Exercise: Need inhibition of CCn1c(-c2nonc2N)nc2c(C#CC(C)(C)O)ncc(OC3CCNCC3)c21 , thanks.
Key: 0.88

Exercise: Quick one: inhibition for CCn1c(-c2nonc2N)nc2ccccc21 ?
Key: 0.97

Exercise: Using the record for CC(C)COC(=O)c1ccc2c(c1)/C(=C/Nc1ccc(S(N)(=O)=O)cc1)C(=O)N2 , report its inhibition.
Key: -0.78
